Overview of reported GI50 across a group of compounds:
- System: SNB-75 CNS
- TEST SUMMARY: NCI tumour cell line growth inhibition, 48 h

Previously resolved entries follow.
COc1cc(-c2cc(/C=C3\C(=O)Nc4ccccc43)[nH]n2)cc(OC)c1OC	1.18 µM
C=CCC(N[C@H](CO)c1ccccc1)c1cn(S(=O)(=O)c2ccc(C)cc2)c2ccccc12 (stereo partly drawn)	66.2 µM

Switching to the query record.
Exercise: Report GI50 for O=C(O)c1cc(Cc2ccc(O)c(C(=O)O)c2)ccc1O (tested in a mixture with another compound) please.
Key: 3.32 µM

###

- System: SW-620 colon
- TEST SUMMARY: NCI tumour cell line growth inhibition, 48 h
The molecules listed here are annotated with their TGI.

Exercise: I am curious: what TGI value has been reported for C/C1=C/C(=O)O[C@@H]2C[C@@H](CC[C@H](C)/C=C\C=C\CC1)O[C@@](OCCc1ccccc1)([C@@H]1CSC(=O)N1)C2 ?
Key: > 17.5 µM

Exercise: # iterate: O=C1CCCCC(=O)Nc2ccccc2N1
Key: > 100 µM

Exercise: Another molecule to look at: O[C@H]1[C@H]2[C@H](O)C[C@H](CCOCc3ccccc3)CN2C[C@H]1O
Key: > 100 µM

###

- System: OVCAR-4 ovarian
- TEST SUMMARY: NCI tumour cell line growth inhibition, 48 h
PARAMETER: TGI

A selection of reference data follows.
CC1SC(c2c(Cl)cccc2Cl)N(NC(=O)C(O)c2ccccc2)C1=O (stereo not drawn)	> 100 µM
C1=C(c2ccccc2)SC=C(c2ccccc2)S1	> 100 µM

Exercise: Return TGI measured with OVCAR-4 ovarian given this compound: c1cc(-c2cn[nH]c2)cc(-c2cn[nH]c2)c1
Key: > 100 µM

###

- System: A498 renal
- TEST SUMMARY: NCI tumour cell line growth inhibition, 48 h
PARAMETER: GI50

These recorded examples may help you get a feel for the data.
COc1ccc(C(=O)COc2cccc(/C=C3\CSc4ccc(Cl)cc4C3=O)c2)cc1	36.5 µM
CS(=O)(=O)CCn1c(=O)c(Oc2ccc(F)cc2F)cc2cnc(NC3CCOCC3)nc21	15.8 µM
O=C1c2ccn(CCCCN3CCCCC3)c2C(=O)c2c1c(O)c1ccccc1c2O	15.3 µM
CN1CCN(CCNc2ccc(CO)c3sc4ccccc4c(=O)c23)CC1	2.51 µM
N[C@@H]1CCCC[C@@H]1N.O=C([O-])CN(CP(=O)([O-])[O-])CP(=O)([O-])[O-].[Pt+2]	> 100 µM

Exercise: Request the reported GI50 associated with CCOC(=O)N[C@H]1CCc2c(Br)c(OC)c(OC)c(OC)c2-c2ccc(SC)c(=O)cc21
Key: < 0.01 µM

Exercise: Let us now turn to COc1cc(NCc2ccccc2O)c2ncccc2c1
Key: 13.2 µM

Exercise: Same thing, different compound: COC(=O)OCc1ccc2c(c1)C(=O)c1c-2n(CCCBr)c(=O)c2cc([N+](=O)[O-])ccc12
Key: 57.6 µM

Exercise: Now consider COc1cc(-c2cc(/C=C3\C(=O)Nc4ccccc43)[nH]n2)cc(OC)c1OC and answer again.
Key: 2.5 µM

Exercise: For COc1cc(C2=NN(c3ccc(S(N)(=O)=O)cc3)C(c3ccc(Cl)cc3)C2)cc(OC)c1OC (stereo not given) then?
Key: 1.93 µM
